assayed.system: full-length human CRM1 (wild type) (human, UniProt O14980 1-1071)
Sequence (O14980 whole entry): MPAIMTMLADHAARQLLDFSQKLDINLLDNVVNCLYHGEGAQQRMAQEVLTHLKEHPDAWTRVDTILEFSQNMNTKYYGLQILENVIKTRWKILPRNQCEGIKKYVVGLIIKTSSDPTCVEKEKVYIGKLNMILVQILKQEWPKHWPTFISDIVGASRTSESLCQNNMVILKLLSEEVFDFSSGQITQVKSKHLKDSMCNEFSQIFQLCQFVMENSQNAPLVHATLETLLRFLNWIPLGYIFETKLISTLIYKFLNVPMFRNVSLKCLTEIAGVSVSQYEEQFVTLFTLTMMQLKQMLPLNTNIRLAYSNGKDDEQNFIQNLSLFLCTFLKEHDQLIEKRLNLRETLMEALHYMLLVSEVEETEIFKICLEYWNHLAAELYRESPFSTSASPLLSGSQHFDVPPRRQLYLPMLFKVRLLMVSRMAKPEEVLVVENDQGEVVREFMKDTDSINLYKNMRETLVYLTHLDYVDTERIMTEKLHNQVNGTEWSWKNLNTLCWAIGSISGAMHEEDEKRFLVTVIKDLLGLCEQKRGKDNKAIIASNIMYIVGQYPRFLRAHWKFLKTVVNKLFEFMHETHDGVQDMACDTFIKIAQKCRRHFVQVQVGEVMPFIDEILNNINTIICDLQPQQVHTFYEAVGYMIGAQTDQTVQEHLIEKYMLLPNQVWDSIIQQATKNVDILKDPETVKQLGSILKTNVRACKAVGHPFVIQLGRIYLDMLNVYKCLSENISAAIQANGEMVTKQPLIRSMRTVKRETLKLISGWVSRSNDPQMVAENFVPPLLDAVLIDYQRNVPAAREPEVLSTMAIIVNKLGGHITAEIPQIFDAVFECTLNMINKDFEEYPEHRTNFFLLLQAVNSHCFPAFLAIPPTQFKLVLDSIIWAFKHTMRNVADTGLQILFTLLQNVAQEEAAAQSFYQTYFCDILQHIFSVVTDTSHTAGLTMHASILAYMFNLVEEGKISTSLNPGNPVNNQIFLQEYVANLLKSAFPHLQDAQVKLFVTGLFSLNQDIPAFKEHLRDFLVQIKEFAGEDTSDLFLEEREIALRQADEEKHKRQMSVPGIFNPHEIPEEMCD
reported.endpoint: pKd
Give bare numbers, as −log10 of the molar value.

Task: Query: pKd; subject: TNLEALQKKLEELALDEQ [MBP-Mek1^NES(E41A)]
Output: 8.30

The origin of these recorded values is paper PMC7525811.
